These data points were gathered from patent KR20220001106A.

system: T1, recombinant human VEGF165 (Sino biological) (human, UniProt P15692-4 27-191)
T1 construct: Sino Biological VEGF165 was used in the Octet assay
T1 sequence (P15692 other isoform, or with tags, fused parts or gaps limits assumed): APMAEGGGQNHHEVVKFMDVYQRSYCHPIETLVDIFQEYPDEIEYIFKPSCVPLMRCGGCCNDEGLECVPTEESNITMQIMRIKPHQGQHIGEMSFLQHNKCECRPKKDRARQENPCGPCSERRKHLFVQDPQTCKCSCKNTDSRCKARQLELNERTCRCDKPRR
experiment_notes: Octet red96E BLI, VEGF165 amine-coupled on AR2G sensor, antibody as analyte, 30 C
Give measured pKd for each item. Keep answers brief.
// pKd here means minus log10 of the molar concentration (mol/L)

The value of pKd measured for the binder Hz2-F (antibody with SEQ ID NO 32 and SEQ ID NO 31) (antibody, human IgG1, L234A L235A, V domains shown, copies: 2 + 2) VH: EVQLVESGGGLVQPGGSLRLSCAVSGIDLNRYSLTWIRQAPGKGLEWVAIVGGSGVTYYANWAKGRFTISRDDSKNTLYLQMNSLRAEDTAVYYCARGSDRSAYAPDIWGQGTLVTVSS VL: DIQLTQSPSSLSASVGDRVTITCQSSQSIYSNNYLAWYQQKPGKAPKLLLYQASKLASGVPSRFSGSGSGTDFTLTISSLQPEDFATYYCLGVYDDDADNAFGQGTKVEIKR turned out to be 11.40

The value of pKd measured for the binder RIgG1 (rabbit antibody made with SEQ ID NO 24 and SEQ ID NO 25) (antibody, V domains shown, Converted from scFv to whole IgG in vector pCEP6-WPRE, which carries an Fc part; The ELISA detected it with anti-hIgG-Fc; also called 2-19 (IgG form)) VH: QSVEESGGRLVTPGTPLTLTCTVSGIDLNRYSLTWVRQAPGKGLEWIGIVGGSGVTYYANWTKGRFTISKTSTTVDLKMTSLTTEDTATYFCARGSDRSAYAPDIWGPGTLVTISS VL: ELDMTQTPSSVSAAVGGTVTINCQSSQSVYSNNYLAWYQQKPGQPPKLLLYQASKLASGVSSRFSGSGSGTHFTLTISGVQCDDAATYYCLGVYDDDADNAFGGGTELEILR turned out to be 11.40

The value of pKd measured for the binder Hz2 (humanized antibody made with SEQ ID NO 30 and SEQ ID NO 31) (antibody, V domains shown, Whole IgG from vector pCEP6-WPRE with an Fc part) VH: EVQLVESGGGLVQPGGSLRLSCAVSGIDLNRYSLTWIRQAPGKGLEWVAIVGGSGVTYYANWAKGRFTISRDDSKNTLYLQMNSLRAEDTAVYYCARGSDRSAYAPDIWGQGTLVTVSS VL: DIQLTQSPSSLSASVGDRVTITCQSSQSIYSNNYLAWYQQKPGKAPKLLLYQASKLASGVPSRFSGSGSGTDFTLTISSLQPEDFATYYCLGVYDDDADNAFGQGTKVEIKR turned out to be 11.71

The value of pKd measured for the binder Hz1 (humanized antibody made with SEQ ID NO 28 and SEQ ID NO 29) (antibody, V domains shown, Whole IgG from vector pCEP6-WPRE with an Fc part) VH: EVQLVESGGGLVKPGGSLRLSCAASGIDLNRYSLTWVRQAPGKGLEWVGIVGGSGVTYYANWAKGRFTISRDSAKNSLYLQMNSLRAEDTAVYFCARGSDRSAYAPDIWGPGTLVTVSS VL: DIQMTQSPSSLSASVGDRVTINCQSSQSIYSNNYLAWYQQKPGKPPKLLLYQASKLASGVPSRFSGSGSGTDFTLTISSLQPEDVATYYCLGVYDDDADNAFGGGTELEIKR turned out to be 11.33
